Tested on: RARg:RXRa (NR concentration 270 nM, RXRa partner concentration 90 nM)
assay-comment: PBM binding z-score (relative to random genomic background probes); higher = stronger binding; sequences stand for … in GC…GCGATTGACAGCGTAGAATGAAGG
value-type: PBM binding z-score

Use these answered entries as a reference point.
[[record]]
seq = "CGAACGAGTGCATGAGTTGATAGCAAATGCCGAT"
meas_value = 0.343

[[record]]
seq = "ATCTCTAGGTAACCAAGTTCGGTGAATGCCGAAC"
meas_value = 0.289

[[record]]
seq = "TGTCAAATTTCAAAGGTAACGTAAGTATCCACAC"
meas_value = 0.768


-- ask I would be grateful if you could share the reported PBM binding z-score for `CCGACTGGGGCAGAAAGATTACCATACCATCCGG` .
-- reply -0.183

-- ask I would be grateful if you could share the reported PBM binding z-score for `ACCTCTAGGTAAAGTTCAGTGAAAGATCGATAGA` .
-- reply 1.59
